Target: mouse TMEM16A mutant V599A (Mus musculus, UniProt Q8BHY3, V599A)
Construct: expressed in transfected cells; host or cells: HEK293T
Sequence (Q8BHY3 1-960 V599A): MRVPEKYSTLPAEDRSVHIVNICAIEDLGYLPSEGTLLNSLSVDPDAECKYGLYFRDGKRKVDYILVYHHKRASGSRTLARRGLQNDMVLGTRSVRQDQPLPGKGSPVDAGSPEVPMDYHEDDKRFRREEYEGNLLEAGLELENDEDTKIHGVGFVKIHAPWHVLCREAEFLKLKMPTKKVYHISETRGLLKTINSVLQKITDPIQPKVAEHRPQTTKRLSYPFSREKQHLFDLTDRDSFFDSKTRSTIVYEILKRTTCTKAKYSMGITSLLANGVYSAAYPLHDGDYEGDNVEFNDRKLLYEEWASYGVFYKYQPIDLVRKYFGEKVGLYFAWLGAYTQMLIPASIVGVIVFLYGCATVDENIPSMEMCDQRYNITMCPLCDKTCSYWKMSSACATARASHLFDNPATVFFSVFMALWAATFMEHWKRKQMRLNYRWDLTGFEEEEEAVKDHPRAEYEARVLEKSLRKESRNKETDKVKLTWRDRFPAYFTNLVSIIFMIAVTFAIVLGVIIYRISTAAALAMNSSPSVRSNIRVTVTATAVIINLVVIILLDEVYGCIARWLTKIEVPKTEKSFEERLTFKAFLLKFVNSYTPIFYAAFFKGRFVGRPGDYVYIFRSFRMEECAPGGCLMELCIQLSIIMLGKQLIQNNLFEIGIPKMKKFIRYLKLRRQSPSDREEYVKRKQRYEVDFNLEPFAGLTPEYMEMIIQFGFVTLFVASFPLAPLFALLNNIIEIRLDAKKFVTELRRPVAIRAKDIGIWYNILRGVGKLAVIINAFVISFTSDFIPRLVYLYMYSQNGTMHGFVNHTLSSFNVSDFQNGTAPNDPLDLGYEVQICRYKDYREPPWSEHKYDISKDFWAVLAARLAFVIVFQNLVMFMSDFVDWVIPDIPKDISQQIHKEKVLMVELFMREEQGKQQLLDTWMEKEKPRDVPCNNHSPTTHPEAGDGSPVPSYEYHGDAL
Assay: Inside-out patch recording of 1PBC block, mutant V599A
Format: cell-based
Details: V599A; V 60 mV
quantity name: IC50 (µM)
Dear colleague, please return just the value in µM, with no unit written.

Field IC50 (entry `N#Cc1c(C(F)(F)F)cc(O)n2c1nc1ccccc12` ) reads 48.9

---

Biological target: mouse TMEM16A mutant R515A (Mus musculus, UniProt Q8BHY3, R515A)
Construct: expressed in transfected cells; host or cells: HEK293T
Sequence (Q8BHY3 1-960 R515A): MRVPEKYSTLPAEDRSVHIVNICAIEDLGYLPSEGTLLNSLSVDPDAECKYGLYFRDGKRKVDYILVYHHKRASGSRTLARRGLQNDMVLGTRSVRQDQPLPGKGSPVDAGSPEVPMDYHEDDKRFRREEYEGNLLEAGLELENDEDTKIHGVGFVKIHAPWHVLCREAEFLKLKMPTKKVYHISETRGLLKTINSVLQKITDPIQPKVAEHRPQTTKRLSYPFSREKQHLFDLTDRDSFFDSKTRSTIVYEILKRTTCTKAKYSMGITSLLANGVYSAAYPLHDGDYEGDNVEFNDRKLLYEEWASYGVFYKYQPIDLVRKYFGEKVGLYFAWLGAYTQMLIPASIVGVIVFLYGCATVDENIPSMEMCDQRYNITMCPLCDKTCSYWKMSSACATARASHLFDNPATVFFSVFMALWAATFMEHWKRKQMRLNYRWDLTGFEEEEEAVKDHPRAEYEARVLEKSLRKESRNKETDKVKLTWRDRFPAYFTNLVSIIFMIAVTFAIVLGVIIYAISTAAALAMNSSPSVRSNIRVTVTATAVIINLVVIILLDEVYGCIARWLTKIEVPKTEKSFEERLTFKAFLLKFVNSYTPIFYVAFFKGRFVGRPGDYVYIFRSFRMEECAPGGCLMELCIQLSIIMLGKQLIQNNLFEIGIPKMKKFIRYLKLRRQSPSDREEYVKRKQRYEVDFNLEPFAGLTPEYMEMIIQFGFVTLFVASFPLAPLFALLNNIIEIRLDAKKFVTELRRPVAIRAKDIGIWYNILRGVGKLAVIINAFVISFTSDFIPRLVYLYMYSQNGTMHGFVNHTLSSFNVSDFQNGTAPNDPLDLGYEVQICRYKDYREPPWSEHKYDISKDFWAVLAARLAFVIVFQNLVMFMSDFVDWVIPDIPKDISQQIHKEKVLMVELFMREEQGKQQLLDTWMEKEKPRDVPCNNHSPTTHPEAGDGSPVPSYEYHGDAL
Assay: Inside-out patch recording of 1PBC block, mutant R515A
Format: cell-based
Conditions: -140 mV; 4 µM Ca2+
quantity name: pIC50
Please treat pIC50 as minus the base-10 logarithm of the molar concentration.

Field pIC50 (entry `N#Cc1c(C(F)(F)F)cc(O)n2c1nc1ccccc12` ) reads 3.77

---

Molecular target: mouse TMEM16A mutant Y598A (Mus musculus, UniProt Q8BHY3, Y598A)
Construct: expressed in transfected cells; host or cells: HEK293T
Sequence (Q8BHY3 1-960 Y598A): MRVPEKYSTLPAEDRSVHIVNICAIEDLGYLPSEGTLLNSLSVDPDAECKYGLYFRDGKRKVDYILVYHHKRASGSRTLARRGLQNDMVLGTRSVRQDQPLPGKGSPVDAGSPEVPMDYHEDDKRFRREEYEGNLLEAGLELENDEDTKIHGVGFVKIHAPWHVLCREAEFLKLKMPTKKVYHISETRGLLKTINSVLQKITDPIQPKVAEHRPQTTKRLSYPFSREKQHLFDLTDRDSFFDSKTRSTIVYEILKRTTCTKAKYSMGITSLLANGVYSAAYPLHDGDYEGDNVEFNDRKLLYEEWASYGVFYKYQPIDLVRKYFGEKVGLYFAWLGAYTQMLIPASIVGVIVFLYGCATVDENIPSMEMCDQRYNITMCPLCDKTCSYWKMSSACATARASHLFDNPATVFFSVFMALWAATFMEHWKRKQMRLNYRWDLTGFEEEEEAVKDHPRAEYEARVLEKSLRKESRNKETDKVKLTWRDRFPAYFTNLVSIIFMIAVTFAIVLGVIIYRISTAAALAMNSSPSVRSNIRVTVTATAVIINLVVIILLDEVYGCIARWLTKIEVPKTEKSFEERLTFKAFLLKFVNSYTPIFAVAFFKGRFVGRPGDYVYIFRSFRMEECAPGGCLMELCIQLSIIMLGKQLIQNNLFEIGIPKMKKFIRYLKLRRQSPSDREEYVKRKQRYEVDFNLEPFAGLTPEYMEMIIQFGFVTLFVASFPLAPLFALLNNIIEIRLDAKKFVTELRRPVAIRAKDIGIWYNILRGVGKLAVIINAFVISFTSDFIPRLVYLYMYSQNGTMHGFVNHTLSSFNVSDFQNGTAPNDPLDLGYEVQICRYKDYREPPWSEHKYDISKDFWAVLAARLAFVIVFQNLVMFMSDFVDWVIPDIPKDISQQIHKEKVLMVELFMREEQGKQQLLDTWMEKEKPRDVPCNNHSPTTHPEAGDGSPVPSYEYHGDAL
Assay: Inside-out patch recording of 1PBC block, mutant Y598A
Type: cell-based
Settings: 100 mV; 2 µM Ca2+
quantity name: pIC50
Please treat pIC50 as minus the base-10 logarithm of the molar concentration.

Field pIC50 (entry N#Cc1c(C(F)(F)F)cc(O)n2c1nc1ccccc12 [1PBC] ) reads 5.51

---

Biological target: mouse TMEM16A mutant N546A (Mus musculus, UniProt Q8BHY3, N546A)
Construct: expressed in transfected cells; host or cells: HEK293T
Sequence (Q8BHY3 1-960 N546A): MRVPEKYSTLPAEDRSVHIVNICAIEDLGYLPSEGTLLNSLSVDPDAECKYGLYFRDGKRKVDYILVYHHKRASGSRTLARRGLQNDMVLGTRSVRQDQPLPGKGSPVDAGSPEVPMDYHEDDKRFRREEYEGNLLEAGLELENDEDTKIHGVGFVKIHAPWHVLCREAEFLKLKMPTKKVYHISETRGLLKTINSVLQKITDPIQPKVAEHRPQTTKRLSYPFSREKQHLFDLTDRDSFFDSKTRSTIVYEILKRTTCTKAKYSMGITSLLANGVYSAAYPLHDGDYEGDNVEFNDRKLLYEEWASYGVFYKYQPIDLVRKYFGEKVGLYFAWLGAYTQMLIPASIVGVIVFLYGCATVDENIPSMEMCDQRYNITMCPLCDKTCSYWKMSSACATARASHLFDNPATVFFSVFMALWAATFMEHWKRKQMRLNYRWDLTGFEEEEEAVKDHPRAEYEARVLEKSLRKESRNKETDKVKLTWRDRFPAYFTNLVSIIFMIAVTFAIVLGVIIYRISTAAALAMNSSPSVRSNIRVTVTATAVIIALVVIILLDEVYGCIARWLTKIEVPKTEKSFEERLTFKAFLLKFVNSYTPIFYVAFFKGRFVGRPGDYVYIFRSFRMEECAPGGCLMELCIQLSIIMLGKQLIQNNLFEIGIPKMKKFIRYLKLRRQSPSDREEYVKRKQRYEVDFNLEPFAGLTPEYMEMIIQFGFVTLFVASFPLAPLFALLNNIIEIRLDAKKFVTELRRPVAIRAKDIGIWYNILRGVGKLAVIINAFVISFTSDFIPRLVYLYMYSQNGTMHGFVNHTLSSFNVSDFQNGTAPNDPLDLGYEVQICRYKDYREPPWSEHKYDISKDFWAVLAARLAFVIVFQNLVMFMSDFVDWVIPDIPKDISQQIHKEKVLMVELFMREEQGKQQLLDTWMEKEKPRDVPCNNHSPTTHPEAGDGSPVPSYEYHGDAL
Test: Inside-out patch recording of 1PBC block, mutant N546A
Assay type: cell-based
Details: -60 mV; 2 µM Ca2+
quantity name: pIC50
Please treat pIC50 as minus the base-10 logarithm of the molar concentration.

Field pIC50 (entry `N#Cc1c(C(F)(F)F)cc(O)n2c1nc1ccccc12` ) reads 5.87
